# targetSystem: T1, cTnI quality control product recombinant protein (human, UniProt P19429 2-210, limits assumed)
# T1 construct: treated as the same molecule; also called cTnI antigen; cardiac troponin I
# T1 sequence (P19429 2-210 limits assumed): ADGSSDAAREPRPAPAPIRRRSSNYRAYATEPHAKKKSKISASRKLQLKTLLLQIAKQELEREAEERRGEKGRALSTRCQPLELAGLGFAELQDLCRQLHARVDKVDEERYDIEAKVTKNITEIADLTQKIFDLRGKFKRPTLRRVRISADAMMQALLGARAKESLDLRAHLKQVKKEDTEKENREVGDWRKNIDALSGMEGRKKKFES
# testName: sandwich ELISA, antibody 4.115 ng/ml on anti-mouse IgG, cTnI 0.15 ug/ml, HRP second mAb
# Source text: After mutation, the antibody activity is detected. […]
assayMetric: OD450 (ref. 630 nm) (OD)
Give the number; OD is assumed, so skip it.

Incoming: Param item = Mutation 2 (antibody, V domains shown, Built as m3, with this row's residues) VH: EVQLQQSGPELVKPGASVKMSCKASGYSFTLYVVHWVKQKPGQGLEWIGYIQPYLDGTKYNEKFKGKATLTVDKSSSTAFMELSSLTSEDSAVYYCARSGYGGYGLAWLAYWGQGTLVTVSA VL: QAVVIQESALTTSPGETVTLTCRSSTGAATTSQYANWVQEKPDHLFTGLIGGSNNRVPGVPARFSGSLIGDKAALTITGAQTEDEAIYFCAIVYSNHWVFGGGTKLTVLG ; retrieve measured OD450 (ref. 630 nm).
Outgoing: 1.51
